# Assay name: A qHTS for Small Molecule Inhibitors of Shiga Toxin; also: 0% is about no effect
# Particulars: Vero cells, Shiga toxin protein synthesis inhibition reporter; at 38.7 µM, hits give high values
Hit rate of the full screen: of about 290,000 compounds, about 27,000 (9.3%) were called active. Only a selection was taken, and actives are over-represented in it overall.
Assay readout: inhibition (%)
Just the number in %, nothing appended.

Tell me inhibition reported for "Cc1ccc2nc(-c3ccncc3)cc(C(=O)Nc3ccc4c(c3)OCCO4)c2c1"
9.13

Tell me inhibition reported for "COc1cccc(CNS(=O)(=O)c2csc(C(N)=O)c2)c1"
9.09

Tell me inhibition reported for "O=C(Nc1ccc(-c2csc(Nc3cccc(C(F)(F)F)c3)n2)cc1)c1cccc(C(F)(F)F)c1"
-5.94

Tell me inhibition reported for "COc1ccc(OC)c(Nc2nc(-c3ccc(O)c(O)c3)cs2)c1"
7.27

Tell me inhibition reported for "Cc1ccc2c(c1)N(CC(=O)N1CCOCC1)C(=O)CO2"
-3.54

Tell me inhibition reported for "COc1ccc(OC)c(NC(=S)N2CCc3ccccc3C2)c1"
46.8

Tell me inhibition reported for "CN(C(=O)CSc1nc(C2CC2)nc2ccccc12)c1nc(-c2ccccc2)cs1"
14.4

Tell me inhibition reported for "COc1ccc(-c2csc(Nc3ccc(O)cc3)n2)cc1"
92.3

Tell me inhibition reported for "COc1ccc(NC(=S)N2CCc3cc(OC)c(OC)cc3C2)cc1"
11.3

Tell me inhibition reported for Cc1nc(NC(=O)C23CCC(C)(C(=O)O2)C3(C)C)sc1C (stereo not drawn)
-12.8

Tell me inhibition reported for "CCCS(=O)(=O)Nc1ccc(-c2cn3c(n2)SCC3)cc1"
27.3

Tell me inhibition reported for "COc1ccccc1CN(C)C(=O)c1cc2ccccc2o1"
5.75

Tell me inhibition reported for O=C(Nc1ccc2c(c1)OCCO2)C(c1ccc(F)cc1)N1CCCCC1 (stereo not drawn)
5.25

Tell me inhibition reported for "Cc1ccc(C(=O)N/C(=C\c2cn(S(=O)(=O)N(C)C)c3ccccc23)C(=O)N2CCCC2)cc1"
-2.9

Tell me inhibition reported for "Oc1ccc(-c2csc(Nc3cccnc3)n2)cc1"
121

Tell me inhibition reported for "Cc1cnc(NC(=O)C2CCCC2)s1"
28.6

Tell me inhibition reported for "Brc1ccc(-c2csc(N/N=C/c3cccnc3)n2)cc1"
37

Tell me inhibition reported for "COc1ccc(CCN(C(=O)COc2ccccc2)c2nc(-c3ccccc3)cs2)cc1OC"
-8.73

Tell me inhibition reported for "COc1ccc(C)cc1NC(=S)N1CCOCC1"
-10.3

Tell me inhibition reported for "CCc1ccc(/C=N/NC(=O)c2nnn(-c3nonc3N)c2CN2CCc3ccccc32)cc1"
-4.83

Tell me inhibition reported for CC(=O)N1c2ccc(S(=O)(=O)N3CCCC(C(=O)Nc4ccc(C)cc4C)C3)cc2CC1C (stereo not drawn)
-2.6

Tell me inhibition reported for CN1CCCC(OC(=O)COc2ccc(Br)cc2)C1 (stereo not drawn)
-12

Tell me inhibition reported for "CC(C)(C)C(=O)OCc1nc(-c2ccc(O)c(O)c2)cs1"
27.1

* * *

# Assay name: A qHTS for Small Molecule Inhibitors of Shiga Toxin; also: 0% is about no effect
# Particulars: Vero cells, Shiga toxin protein synthesis inhibition reporter; at 38.7 µM
Screen size: about 290,000 compounds; about 27,000 (9.3%) were called active. No stated cut-off is given here; in the data, active means inhibition mostly above about 28% (no sharp cut-off); inactive means mostly below about 43%. The full list was thinned out, with actives kept by preference.
Returns: one label drawn from Yes (active), No (inactive)

Short answer needed: outcome of this test for "O=C(O)c1ccccc1-c1ccccc1C(=O)Nc1nccs1" ?
No

Short answer needed: outcome of this test for "O=C1CN(C(=O)c2cc(F)cc(F)c2)c2ccccc2N1" ?
No

Short answer needed: outcome of this test for "CCOCCCNC(=S)Nc1ccc2nc(N3CCN(CC)CC3)cc(C)c2c1" ?
No

Short answer needed: outcome of this test for CCC(NC(=O)c1ccccc1NC(=O)c1ccccc1)C(=O)NNC(=O)CSc1nc2ccccc2o1 (stereo not drawn) ?
Yes

Short answer needed: outcome of this test for "CNC(=O)C1CCN(S(=O)(=O)c2c(C)noc2/C=C/c2cccc(C)c2)CC1" ?
No

Short answer needed: outcome of this test for "Cc1ccc(S(=O)(=O)N(CC(=O)NCc2ccco2)c2ccccc2C)cc1" ?
No

Short answer needed: outcome of this test for "CCN(CC)CCN(C(=O)c1ccc(N2C(=O)CCC2=O)cc1)c1nc2cc3c(cc2s1)OCO3" ?
No

Short answer needed: outcome of this test for "CCOC(=O)Cn1c(=O)sc2cccc(Cl)c21" ?
No

Short answer needed: outcome of this test for "COc1c(O)c2c(=O)cc(OC)c3c4c(OC)cc(=O)c5c(O)c(OC)c6c(c(c1C[C@@](C)(O)[C@H]6C(C)=O)c23)c54" ?
No

Short answer needed: outcome of this test for "COc1ccc(CNC(=O)c2ccc3oc(C(C)C)nc3c2)cc1" ?
Yes

Short answer needed: outcome of this test for "Cn1c(=O)[nH]c(=O)c2c1nc(Br)n2CCCCSc1nc2ccccc2o1" ?
No

Short answer needed: outcome of this test for "O=C(NCCOc1ccccc1)c1ccccc1" ?
No

Short answer needed: outcome of this test for "Cc1ccc(OCCCC(=O)N2CCOCC2)c(C)c1" ?
Yes

Short answer needed: outcome of this test for COc1ccc(CC(=O)NC2CCSc3ccccc32)cc1OC (stereo not drawn) ?
No

Short answer needed: outcome of this test for "CC12CN3CCN(CC(C3)/C1=N\NC(=O)c1ccccc1N)C2" ?
Yes

Short answer needed: outcome of this test for "Cc1ccc(CNC(=O)[C@@H](NC(=O)Cc2ccccc2)C(C)C)cc1" ?
No

Short answer needed: outcome of this test for "O=C(/C=C/c1ccc(Cl)cc1)NCCCn1ccnc1" ?
No

Short answer needed: outcome of this test for "N#Cc1cccc(CN2CCC(=O)N(CCO)CC2)c1" ?
No

Short answer needed: outcome of this test for "CCN(CC)CCN(C(=O)c1ccc(S(=O)(=O)N2CCOCC2)cc1)c1nc2cc3c(cc2s1)OCCO3" ?
Yes

Short answer needed: outcome of this test for Cc1ccc(OCCCC(=O)NC(C)c2ccccc2)c(C)c1 (stereo not drawn) ?
No

Short answer needed: outcome of this test for CC1(C(=O)N/N=C/c2cc3c(cc2Br)OCO3)CC1(Br)Br (stereo not drawn) ?
No

Short answer needed: outcome of this test for "COc1ccc(CN(C)C(=O)Cc2ccsc2)c(OC)c1OC" ?
No

Short answer needed: outcome of this test for "Cc1cc(S(=O)(=O)N2CCOCC2)ccc1OCC(=O)N1CCOCC1" ?
No

Short answer needed: outcome of this test for "CCc1ccc(Oc2coc3cc(OC(=O)c4cc5ccccc5oc4=O)ccc3c2=O)cc1" ?
No

Short answer needed: outcome of this test for "Cn1cccc1C(=O)Nc1nccs1" ?
Yes

Short answer needed: outcome of this test for CC(C)c1nc2cc(C(=O)NC(C)c3cnn(C)c3)ccc2o1 (stereo not drawn) ?
No

Short answer needed: outcome of this test for "CN(C)CCCN(C(=O)c1ccc(S(=O)(=O)N2CCCCCC2)cc1)c1nc2ccc(Br)cc2s1" ?
No

Short answer needed: outcome of this test for "Cc1cc(F)ccc1NC(=S)NCCc1ccccc1" ?
No

Short answer needed: outcome of this test for "CCn1c(SCC(=O)NC2CC2)nnc1-c1ccncc1" ?
No

Short answer needed: outcome of this test for "CC(=O)NC(=S)Nc1ccc(NC(=S)NC(=O)c2ccc([N+](=O)[O-])cc2)cc1" ?
No

Short answer needed: outcome of this test for Cc1cc(C)c(OCC(=O)N(Cc2cccs2)C2CCS(=O)(=O)C2)c(C)c1 (stereo not drawn) ?
No

Short answer needed: outcome of this test for "CCN(CC)CCCNC(=O)CCn1nc(-c2ccc(Cl)cc2)ccc1=O" ?
No

Short answer needed: outcome of this test for "CCOc1ccc(C(=O)NC(=S)Nc2ccc(NC(=O)C(C)C)cc2)cc1[N+](=O)[O-]" ?
No

Short answer needed: outcome of this test for "Cc1ccc(C)c(N2CCN(S(=O)(=O)c3c(C)[nH]c(C)c3C(=O)N3CCCC3)CC2)c1" ?
No

Short answer needed: outcome of this test for "CCOc1ccc(C(=O)Nc2nccs2)cc1[N+](=O)[O-]" ?
Yes

Short answer needed: outcome of this test for "CCOc1c2ccc(C(=O)NCc3ccc(OC(F)(F)F)cc3)cc2nn1C" ?
No

Short answer needed: outcome of this test for "CC(C)(C)c1cc[n+](-c2[nH]c(=O)sc2/C=N/N=C(\[O-])c2ccccc2)cc1" ?
No

Short answer needed: outcome of this test for "CCCc1c(C(=O)N/N=C(\C)CCc2ccc(OC)cc2)nnn1-c1nonc1N" ?
No

Short answer needed: outcome of this test for CC(=O)NC(CC(=O)Nc1nccs1)c1ccccc1 (stereo not drawn) ?
No

Short answer needed: outcome of this test for CCOC(=O)C1=C(c2ccccc2)NC(=O)NC1c1cc(OCC)c(O)c([N+](=O)[O-])c1 (stereo not drawn) ?
No

Short answer needed: outcome of this test for Nc1ccccc1C(=O)NC1CCCCNC1=O (stereo not drawn) ?
No

Short answer needed: outcome of this test for Nc1c(Cl)cc(-c2csc(N3CCCC3c3nc4cc(Cl)c(Cl)cc4n3CCOCCO)n2)cc1Cl (stereo not drawn) ?
No

Short answer needed: outcome of this test for "CCCCCC(=O)NC(=S)NNC(=O)c1ccc([N+](=O)[O-])cc1" ?
No

Values from PubChem BioAssay AID2315
